For each entry below, report its IL-12 value.
Tested on: human LPS treated DCs
protocol: Cytokine secretion of human DCs (multiplex assay)
Format: cell-based
protocolConditions: without LPS; 200 μl supernatant or amino acid 10 μM, 14 h
Procedure: Peripheral blood mononuclear cells (PBMC) were isolated from heparinized whole blood by density gradient centrifugation (2000 rpm, 22° C., 20 min) (Biocoll, Biochrom AG, Berlin, Germany). […] Purity and viability of DCs was assessed by flow cytometry (FIG. 9A-C). […] IL-5, IFN-gamma, IL-12, and IL-10, were quantified by a multiplex assay (Milliplex Human Cytokine Immunoassay, Millipore GMbH Schalbach, Germany) as described by the manufacturer.
Write down the value, and be sure its unit follows.

Looking up N[C@@H](Cc1c[nH]c2ccccc12)C(=O)O [L-Trp, L-Tryptophan] , I found its IL-12 recorded as 88.30 pg/mL

Looking up O=C(O)[C@@H]1CCCN1 [L-Pro, L-Prolin] , I found its IL-12 recorded as 99.80 pg/mL

Looking up N[C@H](Cc1c[nH]c2ccccc12)C(=O)O [D-tryptophan] , I found its IL-12 recorded as 82.50 pg/mL

Looking up O=C(O)[C@H]1CCCN1 [D-proline] , I found its IL-12 recorded as 90.60 pg/mL

###

System: human LPS treated DCs
protocol: Cytokine secretion of human DCs (multiplex assay)
Format: cell-based
protocolConditions: with LPS 0.1 μg/ml
For each entry below, report its Ratio IL-5/IFN-g value.
Form: value (number only, do not type unit).

Looking up O=C(O)[C@@H]1CCCN1 [L-Pro, L-Prolin] , I found its Ratio IL-5/IFN-g recorded as 0.027

Looking up N[C@H](Cc1c[nH]c2ccccc12)C(=O)O [D-tryptophan] , I found its Ratio IL-5/IFN-g recorded as 0.018

Looking up N[C@@H](Cc1c[nH]c2ccccc12)C(=O)O [L-Trp, L-Tryptophan] , I found its Ratio IL-5/IFN-g recorded as 0.030

Looking up O=C(O)[C@H]1CCCN1 [D-proline] , I found its Ratio IL-5/IFN-g recorded as 0.030

###

Test system: human LPS treated DCs
protocol: Cytokine secretion of human DCs (multiplex assay)
Format: cell-based
protocolConditions: with LPS 0.1 μg/ml; 200 μl supernatant or amino acid 10 μM, 14 h
For each entry below, report its IL-5 value.
State the answer as a number, implicitly in pg/mL.

Looking up N[C@H](Cc1c[nH]c2ccccc12)C(=O)O , I found its IL-5 recorded as 20.60

Looking up O=C(O)[C@H]1CCCN1 , I found its IL-5 recorded as 69.10

Looking up O=C(O)[C@@H]1CCCN1 , I found its IL-5 recorded as 57.70

Looking up N[C@@H](Cc1c[nH]c2ccccc12)C(=O)O , I found its IL-5 recorded as 61.40

The reported measurements were obtained from patent US10857128B2.
